- TARGET_DESC: Beta-2 adrenergic receptor (Homo sapiens) (UniProt P07550)
- Sequence (P07550 whole entry, looked up): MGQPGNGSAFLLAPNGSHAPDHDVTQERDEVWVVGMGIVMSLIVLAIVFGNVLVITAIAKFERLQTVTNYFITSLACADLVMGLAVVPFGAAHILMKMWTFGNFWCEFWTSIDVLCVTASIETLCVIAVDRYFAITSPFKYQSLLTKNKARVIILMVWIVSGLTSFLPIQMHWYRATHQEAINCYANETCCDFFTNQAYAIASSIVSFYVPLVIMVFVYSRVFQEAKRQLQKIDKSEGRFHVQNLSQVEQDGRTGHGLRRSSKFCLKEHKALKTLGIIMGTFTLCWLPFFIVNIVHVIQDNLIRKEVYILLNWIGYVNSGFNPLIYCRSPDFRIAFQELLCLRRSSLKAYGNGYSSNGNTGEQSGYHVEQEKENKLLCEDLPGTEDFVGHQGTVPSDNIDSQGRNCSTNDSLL
- TEST_PROTOCOL: agonist-induced loss of surface beta2AR – cell-based, FAP fluorogen, flow cytometry, validation set, pilot screen (AID 504459);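 further: agonist-driven loss of surface beta2AR via internalization measured by FAP dye flow cytometry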
- MEASUREMENT_SETUP: Am2.2-beta2AR cells, at 10 µM, stronger effect = higher value
Listed molecules paired with reported response
Your answer is read as %, so omit the unit and give the number.

MOLECULE | response [%]
CCCCOc1ccc(CC(=O)NO)cc1 | -26.1
COc1ccc2c(c1)C=CC1(O2)N(CCO)c2ccccc2C1(C)C (stereo unspecified) | 43.9
CC1(C)CC(=O)c2cn3c(nc2C1)nc1ccccc13 | -25.5
COc1ccc2nc(S(=O)Cc3ncc(C)c(OC)c3C)[nH]c2c1 (stereo unspecified) | 24.8
Cc1ccc2c(c1)C1OCCC1C1N2C(=O)C2C(C(=O)O)C3C=CC21O3 (stereo unspecified) | 0.35

Jot down response (Beta-2 adrenergic receptor (Homo sapiens) (UniProt P07550)) of CC(C)[C@H](NC(=O)[C@@H]1CSCN1C(=O)OC(C)(C)C)C(=O)NCC1CCC(C(=O)O)CC1 (stereo partly specified) .
-5.23

Write down measured response (Beta-2 adrenergic receptor (Homo sapiens) (UniProt P07550)) for this molecule. CC(C)CN1CCN(Cc2ccc(C#CC(C)(C)O)cc2)CC1CCO (stereo unspecified)
-11.4

Return reported response for target or system Beta-2 adrenergic receptor (Homo sapiens) (UniProt P07550), item `COc1ccc(OC)c(NC2=C(Cl)C(=O)N(Cc3ccccc3)C2=O)c1` .
3

Quote response with test system Beta-2 adrenergic receptor (Homo sapiens) (UniProt P07550) for `CCc1c(C(C)=O)oc2ccc3c(C)cc(=O)oc3c12`
1.28

Answer with response of `O=C(/C=C/c1ccccc1)NCC1(c2ccccc2)CCOCC1` measured for Beta-2 adrenergic receptor (Homo sapiens) (UniProt P07550).
-8.35

With Beta-2 adrenergic receptor (Homo sapiens) (UniProt P07550) as the test system, provide measured response for this molecule: COc1ccc(C2C(C#N)=C(N)Oc3cc(C)[nH]c(=O)c32)c(OC)c1OC (stereo unspecified)
-4.98

###

# GFP response relative to DMSO values compiled below
- TEST_PROTOCOL: yeast TOR pathway reporter LAP4-GFP change – cell-based, cherry picks, flow cytometry, mother/daughter gates, confirmation (AID 2271);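 further: ratio of sample to DMSO plate mean so 100% equals DMSO level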
- MEASUREMENT_SETUP: S. cerevisiae LAP4-GFP strain, 3 h, measured here: mother cell gate response, at 10 µM, stronger effect = higher value, 100 means same as DMSO control
Write it as a number; the unit % goes unstated.

Worked cases, answers included:
COMPOUND | MEASUREMENT
COc1cc2c(cc1OC)C(c1ccccc1)=NCC2 | 87.6
C[C@]12CC[C@H]3[C@@H](CCC4=CC(=O)CC[C@@]43C)[C@@H]1CC[C@@H]2C(=O)CO | 106
COc1cccc2sc(Nc3nc(-c4ccccn4)cs3)nc12 | 240
Oc1ccc2ccccc2c1/C=N/Nc1nnc(-c2ncc[nH]2)c2ccccc12 | 128
COc1ccc(C(=O)NCC2OCCc3ccccc32)cc1 (stereo not given) | 104
OC(CCN1CCCCC1)(c1ccccc1)c1ccccc1 | 95.2
O=[N+]([O-])c1cccc2cn[nH]c12 | 99.5
CCCCCCCC(=O)OCC(=O)[C@@]1(O)CC[C@H]2[C@@H]3CCC4=CC(=O)CC[C@]4(C)[C@H]3[C@@H](O)C[C@@]21C | 96.4
CC(=O)OCC(=O)[C@H]1CC[C@H]2[C@@H]3CCC4=CC(=O)CC[C@]4(C)[C@H]3CC[C@]12C | 106

Next item in the queue.
Specify reported GFP response relative to DMSO for the compound shown: `CC(=O)Nc1ccc(S(=O)(=O)c2ccc(N)cc2)cc1`
106

###

- TARGET_DESC: Beta-adrenergic receptor kinase 1 (Homo sapiens) (UniProt P25098)
- Sequence (P25098 whole entry, looked up): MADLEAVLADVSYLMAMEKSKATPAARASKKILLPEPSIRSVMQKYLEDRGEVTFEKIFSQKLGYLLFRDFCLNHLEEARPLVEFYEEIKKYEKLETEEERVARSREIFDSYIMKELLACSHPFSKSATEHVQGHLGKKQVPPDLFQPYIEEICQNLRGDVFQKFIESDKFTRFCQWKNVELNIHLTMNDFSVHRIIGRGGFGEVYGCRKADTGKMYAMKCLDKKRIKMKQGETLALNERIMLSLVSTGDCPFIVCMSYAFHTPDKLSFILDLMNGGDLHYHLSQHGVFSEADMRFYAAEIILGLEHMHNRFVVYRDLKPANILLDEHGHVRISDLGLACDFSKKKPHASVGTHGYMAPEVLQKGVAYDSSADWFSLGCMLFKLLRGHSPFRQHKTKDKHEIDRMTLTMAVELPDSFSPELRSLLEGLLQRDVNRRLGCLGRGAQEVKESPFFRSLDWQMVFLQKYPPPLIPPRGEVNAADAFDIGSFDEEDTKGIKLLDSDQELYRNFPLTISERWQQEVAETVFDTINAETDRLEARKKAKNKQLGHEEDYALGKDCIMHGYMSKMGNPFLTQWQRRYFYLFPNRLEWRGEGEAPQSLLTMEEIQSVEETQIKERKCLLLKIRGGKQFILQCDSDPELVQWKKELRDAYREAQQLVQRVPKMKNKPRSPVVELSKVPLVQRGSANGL
- TEST_PROTOCOL: GRK2 binders displacing RNA aptamer, biochemical, validation, human GRK2, bead flow cytometry (AID 488806)
- MEASUREMENT_SETUP: bead-bound GRK2, FAM-aptamer displacement, at 10 µM, stronger effect = higher value
The compounds listed here are annotated with their aptamer binding inhibition.
Provide only the numeric value, understood in %.

COMPOUND | UNIT_TEXT | aptamer binding inhibition
N#Cc1cc2c([nH]c1=O)CCCC2 | % | 0
CN1/C(=C\C=Nc2ccccc2)C(C)(C)c2ccccc21 | % | -1
Cc1[nH]nc(-c2ccc(O)cc2O)c1Oc1ccccc1 | % | 1
COc1cccc(-n2c(C)c3c(OC)cccc(=O)c3c2C)c1 | % | 5

Return the recorded aptamer binding inhibition value; entry: `O=C(NCc1ccc2c(c1)OCO2)c1ccc2c(c1)OCCO2`
-1

Check the records and state aptamer binding inhibition for `CC(=O)[C@H]1[C@H](C#N)C[C@H]2[C@@H]3CC=C4C[C@@H](O)CC[C@]4(C)[C@H]3CC[C@@]21C`
11

Please supply the value of reported aptamer binding inhibition for the item `O=C(Nc1ccc(F)c([N+](=O)[O-])c1)c1ccc2c(c1)OCCO2`
2

Query aptamer binding inhibition for CCC(NC(C)C)C(O)c1ccc(O)c(O)c1 (stereo not drawn)
4

Quote aptamer binding inhibition reported for CN(C)c1ccc(C(CN)c2c[nH]c3ccccc23)cc1 (stereo not drawn) please.
-10

Give the measured aptamer binding inhibition for `COc1cc2cc(C(=O)O)[nH]c2c(OC)c1OC`
0

Complete the entry with aptamer binding inhibition for `O=C(NC(=S)Nc1ccc(N2CCN(C(=O)c3ccccc3)CC2)cc1)c1cccs1`
0

Please list aptamer binding inhibition recorded for the compound CSc1ccc(CN2CCN(CCC(C)C)C(CCO)C2)cc1 (stereo not drawn)
-1

Find the measured aptamer binding inhibition of COc1ccc(C2=NOC(COc3ccc4c(C)cc(=O)oc4c3)C2)c(OC)c1 (stereo not drawn) and report it.
4

Answer with the recorded aptamer binding inhibition of `O=C(CN1C(=O)/C(=C/c2cccc(Br)c2)SC1=S)Nc1cccnc1` only.
0

Return aptamer binding inhibition for the following compound: `CC(C)(C)N(Cc1ccccc1)C(=O)c1ccc(Br)o1`
6

Please supply the value of reported aptamer binding inhibition for the item `COc1ccc(Cc2noc(CN(C)CCN3CCc4ccccc4C3)n2)cc1OC`
6

Indicate the recorded aptamer binding inhibition value for this compound: `O=C(O)CP(=O)(O)O`
6

Let me know recorded aptamer binding inhibition for `COc1ccc(NC(=S)N2CCN(CCN3C(=O)c4cccc5cccc(c45)C3=O)CC2)cc1` , thanks.
0

Name the recorded aptamer binding inhibition of the item `CCOc1ccc(C(=O)NCC2(c3ccccc3)CCOCC2)cc1` in your answer.
-4

###

- TARGET_DESC: Cell division control protein 42 homolog (Homo sapiens) (UniProt P60953)
- Sequence (P60953 whole entry, looked up): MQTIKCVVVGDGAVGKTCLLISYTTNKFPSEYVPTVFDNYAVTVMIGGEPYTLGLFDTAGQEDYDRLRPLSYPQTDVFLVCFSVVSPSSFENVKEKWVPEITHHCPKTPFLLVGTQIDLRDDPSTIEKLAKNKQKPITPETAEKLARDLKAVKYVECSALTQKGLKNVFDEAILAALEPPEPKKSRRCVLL
- TEST_PROTOCOL: inhibition of fluorescent GTP binding to wildtype Cdc42 – biochemical, multiplex bead flow cytometry, Bodipy-FL-GTP, dose response (AID 1334)
- MEASUREMENT_SETUP: bead-based flow cytometry, Bodipy-FL-GTP binding to GST-Cdc42; at 100 µM (top of the series) unless noted
Entries with a potency or affinity are not part of this list.
ENDPOINT_NAME: fluorescence, percent of control (lower = inhibition) (%)
Report as a plain number; the unit % is understood.

Sample answers from the record:
COMPOUND | MEASUREMENT
Cc1cc(NS(=O)(=O)c2ccc(NC(=O)c3cc4c(=O)n5ccccc5nc4s3)cc2)nc(C)n1 | 31.9
O=C(COc1ncnc2cc([N+](=O)[O-])ccc12)NCCc1ccc(Cl)cc1 | 36.6
O=C1c2ccccc2-c2onc3ccc(Oc4ccccc4)c1c23 | 27.9
Cc1nc(NC(=O)/C=C/c2ccc(Cl)cc2Cl)sc1C(=O)N(C)C | 45
Clc1cccc(Cl)c1/C=N\Nc1nccs1 | 96.7
N=C1/C(=C\c2ccc(SCc3ccco3)o2)C(=O)N=C2SC=NN12 | 64.2
COC(=O)c1cn(CCOc2ccccc2)c2ccccc12 | 34.2
N#C/C(=C/c1ccc(-c2ccccc2)o1)c1nc(-c2cccs2)cs1 | 96.4
CC(C)N(C(=O)Cn1cnc2cc([N+](=O)[O-])ccc2c1=O)C(C)C | 34.2
COc1ccccc1OCCn1cc(C(=O)O)c2ccccc21 | 102

Turning now to a further record.
Using known records, supply fluorescence, percent of control (lower = inhibition) for `Cc1cccc(CSCc2ccc(C(=O)O)o2)c1`
58.1

###

# reported GTP binding, percent of control; entries follow
- TARGET_DESC: GTPase HRas (Homo sapiens) (UniProt P01112)
- Sequence (P01112 whole entry, looked up): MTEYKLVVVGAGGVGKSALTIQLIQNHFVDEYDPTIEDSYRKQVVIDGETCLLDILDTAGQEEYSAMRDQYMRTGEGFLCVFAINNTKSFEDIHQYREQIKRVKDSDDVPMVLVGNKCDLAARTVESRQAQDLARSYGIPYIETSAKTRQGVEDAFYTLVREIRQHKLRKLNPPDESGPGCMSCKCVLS
- TEST_PROTOCOL: Ras wt fluorescent GTP loading blockade – biochemical, wildtype, multiplex bead flow cytometry, dose response (AID 1335)
- MEASUREMENT_SETUP: bead-based flow cytometry, Bodipy-GTP binding to GST-Ras; at 100 µM (top of the series) unless noted
Kindly provide the numeric value in % only, without the unit symbol.

Look up and report GTP binding, percent of control, with GTPase HRas (Homo sapiens) (UniProt P01112) as system, for CCOc1ccc(-n2c(SCC(=O)NC(C)CC)nc3n[nH]c(C)c3c2=N)cc1 (configuration not stated)
48.1

Fill in GTP binding, percent of control for O=C(/C=C/c1ccccc1)NC(NC(=S)Nc1ccc(C(=O)O)cc1)C(Cl)(Cl)Cl (configuration not stated) tested with GTPase HRas (Homo sapiens) (UniProt P01112).
78.3

Retrieve GTP binding, percent of control on GTPase HRas (Homo sapiens) (UniProt P01112); query `COc1ccc2c(C(=O)O)cn(CCOc3ccccc3C)c2c1`
214

Give GTP binding, percent of control only, for `NC(=S)N=Nc1c(O)[nH]c2c(Br)cc(Br)cc12` , using GTPase HRas (Homo sapiens) (UniProt P01112) data.
73

Specify GTP binding, percent of control for `CN1CCc2nc3ccc(Cl)cc3c(-c3ccccc3Cl)c2C1` , system GTPase HRas (Homo sapiens) (UniProt P01112).
81.8

Report GTP binding, percent of control under test system GTPase HRas (Homo sapiens) (UniProt P01112) for `O=[N+]([O-])c1cc(Br)c(O)c(C=Nc2ccc(N3CCOCC3)cc2)c1` .
79.8

Answer with GTP binding, percent of control of `COc1nc(Nc2ccc(O)cc2)nc(OC(C(F)(F)F)C(F)(F)F)n1` measured for GTPase HRas (Homo sapiens) (UniProt P01112).
161

Name the value of GTP binding, percent of control reported for `O=C(COc1ccccc1C(=O)N/N=C\c1ccc(O)c(O)c1)N/N=C/c1ccc(O)c(O)c1` when tested on GTPase HRas (Homo sapiens) (UniProt P01112).
157
